B1: Syntaxin-binding protein 4, residues 493 to 538; numbered along this chain, Q6ZWJ1 (parent)
chain: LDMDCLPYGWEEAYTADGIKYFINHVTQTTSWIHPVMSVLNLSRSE

- Variants of: B1
- protocolDetails: abundance fitness (aPCA) (normalised: wild type 0, dead -1); higher = more abundant; growth selection in yeast, the domain comes from the species named
- measurementSetup: Homo sapiens
Mark condition met for reported abundance fitness of -0.6 or greater; mark condition not met for anything smaller.

S38A; condition not met
S38K; condition met
F22G; condition not met
D17T; condition not met
P7S; condition not met
M37R; condition met
T29W; condition met
P7Q; condition not met
H34R; condition met
I33L; condition met
S38D; condition met
A16S; condition met
Q28N; condition met
